experiment: Anti-platelet activity in rabbit platelet-rich plasma assessed as inhibition of ADP-induced platelet aggregation at 12.5 uM incubated for 5 mins at 37 degC by aggregometry; assay type: functional; details: Oryctolagus cuniculus
test-readout: inhibition at 12.5 µM (%)
Express your answer in %, writing the number without its unit.

Answered examples (5):
Which inhibition at 12.5 µM value is on record for "Cc1nc(C)c(C(=O)Oc2ccc(Cl)cc2/C=C/C(=O)O)nc1C" ? 30

Which inhibition at 12.5 µM value is on record for "CCOC(=O)/C=C/c1cc(OC)c(OC(=O)c2nc(C)c(C)nc2C)c(OC)c1" ? 44

Which inhibition at 12.5 µM value is on record for "CCOC(=O)/C=C/c1cc(OC)ccc1OC(=O)c1nc(C)c(C)nc1C" ? 70.5

Which inhibition at 12.5 µM value is on record for "O=C(O)/C=C/c1ccc(Cn2ccnc2)cc1" ? 6.4

Which inhibition at 12.5 µM value is on record for "COc1cc(/C=C/C(=O)O)cc(OC)c1OC(=O)c1nc(C)c(C)nc1C" ? 12

Continuing:
Which inhibition at 12.5 µM value is on record for "COC(=O)[C@H](c1ccccc1Cl)N1CCc2sccc2C1" ? 86.9

Which inhibition at 12.5 µM value is on record for "Cc1nc(C)c(C(=O)Oc2ccccc2/C=C/C(=O)O)nc1C" ? 32.9

Which inhibition at 12.5 µM value is on record for "CCOC(=O)/C=C/c1cccc(OC(=O)c2nc(C)c(C)nc2C)c1" ? 25.1

Which inhibition at 12.5 µM value is on record for "CCOC(=O)/C=C/c1ccc(OC(=O)c2nc(C)c(C)nc2C)cc1" ? 68

Which inhibition at 12.5 µM value is on record for "CCOC(=O)/C=C/c1ccc(OC(=O)c2nc(C)c(C)nc2C)c(O)c1" ? 22

Which inhibition at 12.5 µM value is on record for "COc1ccc(OC(=O)c2nc(C)c(C)nc2C)c(/C=C/C(=O)O)c1" ? 43.4

====

assay: Anti-platelet activity in rabbit platelet-rich plasma assessed as inhibition of ADP-induced platelet aggregation at 100 uM incubated for 5 mins at 37 degC by aggregometry; type: functional; settings: Oryctolagus cuniculus
test-readout: inhibition at 100 µM (%)
Express your answer in %, writing the number without its unit.

Answered examples (3):
Which inhibition at 100 µM value is on record for "COc1ccc(OC(=O)c2nc(C)c(C)nc2C)c(/C=C/C(=O)O)c1" ? 59.8

Which inhibition at 100 µM value is on record for "CCOC(=O)/C=C/c1cc(OC)c(OC(=O)c2nc(C)c(C)nc2C)c(OC)c1" ? 59.5

Which inhibition at 100 µM value is on record for "CCOC(=O)/C=C/c1ccc(OC(=O)c2nc(C)c(C)nc2C)c(O)c1" ? 58.4

We now examine a further compound.
Which inhibition at 100 µM value is on record for "CCOC(=O)/C=C/c1ccc(OC)c(OC(=O)c2nc(C)c(C)nc2C)c1" ? 39.7

====

Below, each entry is listed alongside its reported inhibition at 100 µM.
test: Anti-platelet activity in rabbit platelet-rich plasma assessed as inhibition of ADP-induced platelet aggregation at 100 uM incubated for 5 mins at 37 degC by aggregometry; type: functional; settings: Oryctolagus cuniculus
Express your answer in %, writing the number without its unit.

Which inhibition at 100 µM value is on record for "CCOC(=O)/C=C/c1cc(OC)ccc1OC(=O)c1nc(C)c(C)nc1C" ? 60.7

Which inhibition at 100 µM value is on record for "COc1ccc(/C=C/C(=O)O)c(OC(=O)c2nc(C)c(C)nc2C)c1" ? 40.9

Which inhibition at 100 µM value is on record for "CCOC(=O)/C=C/c1cc(Cl)ccc1OC(=O)c1nc(C)c(C)nc1C" ? 61.7
